Across several studies, compounds have been characterized by their pKi on Metabotropic glutamate receptor 5 (Rattus norvegicus, UniProt P31424); a selection follows.
Sequence (P31424 whole entry): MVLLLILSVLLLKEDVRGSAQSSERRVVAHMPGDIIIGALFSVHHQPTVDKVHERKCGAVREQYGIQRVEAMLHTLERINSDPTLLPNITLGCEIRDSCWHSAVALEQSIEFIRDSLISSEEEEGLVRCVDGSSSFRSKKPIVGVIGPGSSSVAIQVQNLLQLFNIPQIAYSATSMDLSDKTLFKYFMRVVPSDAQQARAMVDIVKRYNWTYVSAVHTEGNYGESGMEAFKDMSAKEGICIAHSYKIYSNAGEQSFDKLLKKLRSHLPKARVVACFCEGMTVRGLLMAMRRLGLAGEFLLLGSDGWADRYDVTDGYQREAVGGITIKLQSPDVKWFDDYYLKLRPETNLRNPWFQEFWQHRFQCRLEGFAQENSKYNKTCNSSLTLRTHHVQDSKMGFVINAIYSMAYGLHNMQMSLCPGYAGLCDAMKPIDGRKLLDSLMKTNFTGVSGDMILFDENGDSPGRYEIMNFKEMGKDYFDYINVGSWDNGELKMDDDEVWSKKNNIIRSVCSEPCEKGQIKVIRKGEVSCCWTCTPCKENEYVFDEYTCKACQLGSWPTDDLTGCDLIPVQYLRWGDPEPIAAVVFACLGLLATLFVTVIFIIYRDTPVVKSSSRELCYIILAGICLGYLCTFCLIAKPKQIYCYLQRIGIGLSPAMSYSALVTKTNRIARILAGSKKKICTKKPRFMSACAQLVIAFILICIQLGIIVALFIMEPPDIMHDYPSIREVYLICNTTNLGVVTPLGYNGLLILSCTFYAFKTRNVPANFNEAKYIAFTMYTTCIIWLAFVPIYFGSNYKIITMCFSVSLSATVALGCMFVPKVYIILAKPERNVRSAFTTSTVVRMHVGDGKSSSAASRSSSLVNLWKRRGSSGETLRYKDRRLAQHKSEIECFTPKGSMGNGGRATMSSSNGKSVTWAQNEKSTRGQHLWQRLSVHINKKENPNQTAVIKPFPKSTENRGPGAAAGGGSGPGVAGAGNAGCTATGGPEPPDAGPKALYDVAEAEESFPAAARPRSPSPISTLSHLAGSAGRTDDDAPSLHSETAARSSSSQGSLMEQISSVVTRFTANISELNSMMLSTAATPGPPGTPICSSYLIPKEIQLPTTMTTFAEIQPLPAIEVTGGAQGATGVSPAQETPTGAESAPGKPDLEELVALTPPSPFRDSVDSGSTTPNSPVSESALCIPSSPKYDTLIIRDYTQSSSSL
A value of pKi is the negative decimal logarithm of a concentration given in moles per litre.

In the examples that follow, each entry is paired with its recorded pKi.
compound	assay-system	value-measured
CO/N=C1/C=C(C#Cc2cccc(C)n2)CCC1	Metabotropic glutamate receptor 5 (Rattus norvegicus, UniProt P31424)	8.74
N#Cc1cccc(-n2nnc(C3CCCCN3C(=O)C3CCC3)n2)c1 (racemic)	Metabotropic glutamate receptor 5 (Rattus norvegicus, UniProt P31424)	6.64
N#Cc1cccc(S(=O)(=O)c2sc3ncccc3c2-c2cccc(Cl)c2)c1	Metabotropic glutamate receptor 5 (Rattus norvegicus, UniProt P31424)	7.84
Fc1cccnc1O/N=C1/C=C(C#Cc2ccccn2)CCC1	Metabotropic glutamate receptor 5 (Rattus norvegicus, UniProt P31424)	8.40
O=S(=O)(c1ccc(Cl)cc1)c1sc2ncccc2c1-c1ccc(F)cc1F	Metabotropic glutamate receptor 5 (Rattus norvegicus, UniProt P31424)	7.57
O=C(/C=C/c1cnc2ccccc2c1)C12CC3CC(CC(C3)C1)C2	Metabotropic glutamate receptor 5 (Rattus norvegicus, UniProt P31424)	6.09

Field: next compound
Value lookup for pKi; key = Fc1cc(-c2cccnc2)cc(-n2nnc(-c3ccccn3)n2)c1
7.43
